B1: INTS3 (parent)
chain: KKREFRFHPIKETVVEEPVDITPY

- Variants of: B1
- protocolDescription: protein stability index of a GFP-peptide fusion (GPS, HEK-293T) (PSI 1-6); higher = more stable;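 also: lentivirally expressed fusions sorted by FACS into six bins by GFP to DsRed ratio, PSI derived from sequencing read proportions per bin multiplied by bin number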
- experimentalParameters: c terminus: a fixed tail appended
propertyMeasured: protein stability index
Just the number.

These recorded examples may help you get a feel for the data.
variantId	protein stability index
V14C	1.98
P23S	1.61
P23A	1.66

Lab note: measured protein stability index of "F5E" was 4.8

Lab note: measured protein stability index of "P23H" was 1.74

Lab note: measured protein stability index of "E16H" was 1.83

Lab note: measured protein stability index of "F5G" was 4.34

Lab note: measured protein stability index of "F7H" was 4.63

Lab note: measured protein stability index of "P23Q" was 1.88

Lab note: measured protein stability index of "H8Q" was 3.45

Lab note: measured protein stability index of "R6C" was 3.87

Lab note: measured protein stability index of "Y24L" was 2.17

Lab note: measured protein stability index of "K11N" was 1.71

Lab note: measured protein stability index of "V14I" was 1.91

Lab note: measured protein stability index of "I10G" was 2.3

Lab note: measured protein stability index of "K2H" was 1.67
